Experiment: Drug uptake in SEB-stimulated human CD25 negative cells assessed as mean fluorescence intensity at 5 x 10^-8 M preincubated for 20 mins followed by growth in photosensitizer-free media for 30 mins by flow cytometric analysis relative to control
Details: 0.5 h, 0.05 µM
Decide using Flu intensity alone. Strictly below 5000 a.u.: true (1). Equal to or above 5000 a.u.: false (0).

{"columns": ["smiles_data", "class"],
 "data": [
  ["CN1CCC(C)(C)c2cc3c(-c4ccc(C(=S)N5CCCCC5)s4)c4ccc(=[N+](C)C)cc-4[se]c3cc21.[Cl-]", "false (0)"],
  ["C[N+]1=c2cc3c(cc2C(C)(C)CC1)=C(c1ccc(C(=S)N2CCCCC2)s1)c1cc2c4c(c1[Se]3)CCCN4CCC2.[Cl-]", "false (0)"],
  ["CN1CCC(C)(C)c2cc3c(cc21)[Se]c1cc2c(cc1=C3c1ccc(C(=S)N3CCCCC3)s1)C(C)(C)CC[N+]=2C.[Cl-]", "false (0)"],
  ["C[N+]1=c2cc3c(cc2C(C)(C)CC1)=C(c1ccc(C(=O)N2CCCCC2)s1)c1cc2c4c(c1[Se]3)CCCN4CCC2.[Cl-]", "false (0)"],
  ["S=C(c1ccc(C2=c3cc4c5c(c3[Se]c3c2cc2c6c3CCCN6CCC2)CCC[N+]=5CCC4)s1)N1CCCCC1.[Cl-]", "false (0)"],
  ["O=C(c1ccc(C2=c3cc4c5c(c3[Se]c3c2cc2c6c3CCCN6CCC2)CCC[N+]=5CCC4)s1)N1CCCCC1.[Cl-]", "true (1)"],
  ["CN1CCC(C)(C)c2cc3c(cc21)[Se]c1cc2c(cc1=C3c1ccc(C(=O)N3CCCCC3)s1)C(C)(C)CC[N+]=2C.[Cl-]", "true (1)"],
  ["CN1CCC(C)(C)c2cc3c(-c4ccc(C(=O)N5CCCCC5)s4)c4ccc(=[N+](C)C)cc-4[se]c3cc21.[Cl-]", "true (1)"]
]}
